# studyTarget: 5-lipoxygenase (Homo sapiens, UniProt P09917)
# Construct: endogenous in cells
# Sequence (P09917 1-674): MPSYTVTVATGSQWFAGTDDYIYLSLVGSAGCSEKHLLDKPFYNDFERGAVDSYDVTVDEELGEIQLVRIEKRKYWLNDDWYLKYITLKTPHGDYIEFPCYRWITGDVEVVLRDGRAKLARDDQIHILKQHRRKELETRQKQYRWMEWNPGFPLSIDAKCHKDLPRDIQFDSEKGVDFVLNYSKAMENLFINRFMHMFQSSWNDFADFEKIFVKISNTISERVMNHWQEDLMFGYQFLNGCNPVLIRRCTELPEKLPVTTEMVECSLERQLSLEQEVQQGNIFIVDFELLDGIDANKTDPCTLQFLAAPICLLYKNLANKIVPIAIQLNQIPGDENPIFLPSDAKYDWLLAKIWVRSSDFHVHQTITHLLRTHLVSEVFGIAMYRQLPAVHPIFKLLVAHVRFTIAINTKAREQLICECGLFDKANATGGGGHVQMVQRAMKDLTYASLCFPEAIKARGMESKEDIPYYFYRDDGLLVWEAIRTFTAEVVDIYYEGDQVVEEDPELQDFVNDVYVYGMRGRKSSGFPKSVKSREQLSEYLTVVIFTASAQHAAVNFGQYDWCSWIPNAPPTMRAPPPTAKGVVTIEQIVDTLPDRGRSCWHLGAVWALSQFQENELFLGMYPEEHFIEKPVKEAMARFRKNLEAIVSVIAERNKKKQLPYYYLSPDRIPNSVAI
# procedureText: 5-Lipoxygenase Assay Using Isolated Human Leukocytes (5LOA2), 5-HETE formation
# runParameters: 50% inhibition of 5-HETE formation in human leukocytes; 20 μM arachidonic acid, 10 μM A23187; read-out: 5-LOA IC50
metric: pIC50
Conceptually, pIC50 converts a concentration in mol/L into minus its log10.

Please tell me: pIC50 of OCc1cc(/C=C/C(CCCCc2ccccc2)=NO)ccc1O [Example 20] , system 5-lipoxygenase (Homo sapiens, UniProt P09917)?
5.06

Follow-up item: O=C(/C=C/c1ccc(O)c(O)c1)CCCCc1ccccc1 [Example 2]
5.77

Follow-up item: COc1ccc(C=CC(=O)CCCCc2ccccc2)cc1O [Example 1]
4.96

Follow-up item: Nc1cc(/C=C/C(CCc2ccccc2)=NO)ccc1O (single isomer, unassigned) [23 (Isomer B)]
6.59

Follow-up item: COc1cc(C=CC(=O)CCc2ccc(O)c(OC)c2)ccc1O [Example 13]
4.72

Follow-up item: COc1cc(C=CC(=O)CSc2ccccc2)ccc1O [Example 16A]
4.92

Follow-up item: Nc1cc(/C=C/C(CCc2ccccc2)=NO)ccc1O (single isomer, unassigned) [23 (Isomer A)]
6.78

Follow-up item: COc1cc(/C=C/C(CCc2ccccc2)=NO)ccc1O [Example 21]
6.38

Follow-up item: O=C(/C=C/c1ccc(O)c(Cl)c1)CCCCc1ccccc1 [Example 5]
5.06
